Test: basal S. cerevisiae growth modulation, no modifier, primary screen, OD600, strain BY4716, 24 h, basal condition (AID 1173)
Conditions: OD600, 24 h, higher = more signal, called active from +8 up or from −8 down
We use 0.6 as the dividing line for z-score: on or above the line is Met, below is Not met.

# compound, category
data = [
    ("COC(=O)[C@@]1(Cc2ccc(OC)cc2)[C@H]2c3cc(C(=O)N4CCCC4)n(Cc4cc(C)n(C)n4)c3C[C@H]2CN1C(=O)c1ccccc1", "Met"),
    ("COCC1C2CC[C@H]3C(OCc4ccc(OC)cc4)OC[C@]4(C)[C@H]3C2=C(CN4C(=O)OC(C)(C)C)[C@H](C)C1COC (some centres not stated)", "Not met"),
    ("CC=CC(O)C1C=CC2C(=O)NC(=O)C2N1Nc1ccccn1 (configuration not stated)", "Met"),
    ("COc1cc(NN2C(C(O)C3CCCCC3)C=CC3C(=O)N(C)C(=O)C32)cc(OC)c1OC (configuration not stated)", "Met"),
    ("CC(C)C(=C=CC[C@@H](O)c1cccc(OCCO)c1)C[C@@H](O)c1ccccn1", "Not met"),
    ("C=CCC(OC(C)=O)[C@@H]1[C@@H](N(Cc2cccc3ccccc23)C(=O)Cc2ccc(F)cc2)c2cc(OCCCO)ccc2N1C(=O)c1ccc(-c2ccccc2)cc1 (some centres not stated)", "Not met"),
]

---

Below is a list of entries, each paired with its recorded composite z-score value.
Assay: small-molecule microarray binders of probe aEGFR, primary screen, biochemical, biotinylated probe, 635/667 nm fluorescence (AID 1097);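 note: probe is a biotinylated anti-EGFR antibody binding compounds printed on slides; score combines fluorescence near 667 nm and signal to noise of each spot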
Settings: higher = more signal
property.measured: composite z-score

# compound, property.measured, assay.value
measured = [
    ("COCC1=C2[C@@H](CCc3ccccc3)OB(O)C[C@@H]2[C@@H]2C(=O)N(C)C(=O)[C@@H]2C1", "composite z-score", -0.131),
    ("C=CCOC(=O)[C@H]1[C@@H]2C(=O)O[C@@H](c3ccccc3)[C@@H](c3ccccc3)N2[C@@H](c2ccc(OCCOC(=O)[C@H]3C[C@H]4C(=O)N[C@@H](CCCCNC(C)=O)C(=O)N4[C@H]3c3cccc(OCCO)c3)cc2)[C@]12C(=O)Nc1ccc(I)cc12", "composite z-score", -0.336),
    ("CC(C)CNC(=O)[C@@]1(c2ccc([N+](=O)[O-])cc2)CC(=O)N(C2CCCCC2)[C@@H]1c1ccc(CO)cc1", "composite z-score", -0.0989),
    ("COc1ccc([Si](C)(C)[C@@H]2[C@@H](CCn3cc([C@H](O)c4ccccc4)nn3)O[C@]3(C(=O)N(Cc4cccc(N5C(=O)c6cccc7cccc5c67)c4)c4ccccc43)[C@H]2C)cc1", "composite z-score", -0.182),
    ("C=CC1c2cc(O)c(OC)cc2CCN1Cc1ccc([N+](=O)[O-])o1 (stereo unspecified)", "composite z-score", 0.0779),
    ("C=CCC(OC(C)=O)[C@@H]1[C@@H](N(Cc2cccc3ccccc23)C(=O)c2cccc3ccccc23)c2cc(OCCCO)ccc2N1C(=O)c1ccc2ccccc2c1 (stereo partly specified)", "composite z-score", -0.0967),
]

---

// reported z-score for each item listed
Target: NADPH oxidase 5 (Homo sapiens) (UniProt Q96PH1)
Sequence (Q96PH1 whole entry, looked up): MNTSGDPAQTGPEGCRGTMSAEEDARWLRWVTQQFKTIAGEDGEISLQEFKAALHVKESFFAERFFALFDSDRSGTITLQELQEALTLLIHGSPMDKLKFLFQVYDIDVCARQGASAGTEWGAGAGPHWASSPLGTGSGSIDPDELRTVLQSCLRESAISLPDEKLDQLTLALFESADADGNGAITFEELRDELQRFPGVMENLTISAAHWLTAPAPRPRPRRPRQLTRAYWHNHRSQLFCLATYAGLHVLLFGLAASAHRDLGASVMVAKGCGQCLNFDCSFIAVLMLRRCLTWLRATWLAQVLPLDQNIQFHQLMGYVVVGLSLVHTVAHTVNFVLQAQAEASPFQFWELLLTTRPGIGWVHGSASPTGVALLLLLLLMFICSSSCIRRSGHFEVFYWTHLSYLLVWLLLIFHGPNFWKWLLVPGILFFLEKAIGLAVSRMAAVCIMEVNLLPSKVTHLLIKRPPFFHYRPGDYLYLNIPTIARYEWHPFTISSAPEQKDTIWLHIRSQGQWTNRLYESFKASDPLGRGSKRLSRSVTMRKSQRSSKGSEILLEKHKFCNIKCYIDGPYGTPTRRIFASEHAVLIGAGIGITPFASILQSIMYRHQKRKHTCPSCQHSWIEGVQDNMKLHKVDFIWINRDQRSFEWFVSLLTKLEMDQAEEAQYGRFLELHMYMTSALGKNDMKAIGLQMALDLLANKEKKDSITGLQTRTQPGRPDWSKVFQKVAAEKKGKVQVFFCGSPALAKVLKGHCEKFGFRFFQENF
Assay: NOX5-dependent H2O2 signal modulators, primary screen, NOX inhibitor project, cell-based, HEK293-NOX5, Amplex Red fluorescence (AID 1161)
Details: HEK293-NOX5, ionomycin, 45 min, higher = more signal

# compound, measured.target, z-score
rows = [
    ("COC(=O)C1N=C(c2ccc(OCCCO)cc2)N(c2ccccc2)O1 (stereo not drawn)", "NADPH oxidase 5 (Homo sapiens) (UniProt Q96PH1)", -0.0493),
    ("COc1cc2c(cc1O)C(c1ccc(CN3CCCC3)cc1)N(C)CC2 (stereo not drawn)", "NADPH oxidase 5 (Homo sapiens) (UniProt Q96PH1)", -1.22),
    ("C[C@@H]1ON(c2ccc(I)cc2)[C@H](c2ccc(OC(=O)OC(C)(C)C)cc2)[C@H]1C(=O)N1C(=O)OC[C@H]1Cc1ccccc1", "NADPH oxidase 5 (Homo sapiens) (UniProt Q96PH1)", 1.39),
    ("CC(C)C[C@@H]1NC(=O)[C@H]2C[C@@H](C(=O)NCCCCCN)[C@@H](c3cccc(OCCO)c3)N2C1=O", "NADPH oxidase 5 (Homo sapiens) (UniProt Q96PH1)", 2.1),
    ("C=C(C)C1CCC(C(O)C2C=CC3C(=O)N(C)C(=O)C3N2Nc2cc(OC)c(OC)c(OC)c2)CC1 (stereo not drawn)", "NADPH oxidase 5 (Homo sapiens) (UniProt Q96PH1)", -2.92),
    ("CCOC(=O)C1=C[C@@H](C(C)(C)C)N(S(=O)(=O)c2ccc(C)cc2)[C@H]1c1ccccc1", "NADPH oxidase 5 (Homo sapiens) (UniProt Q96PH1)", -0.083),
    ("O=C1C2C=CC(C(O)c3cccc(O)c3)N(Nc3ccccc3)C2C(=O)N1c1ccccc1 (stereo not drawn)", "NADPH oxidase 5 (Homo sapiens) (UniProt Q96PH1)", -6.85),
    ("CO[C@H]1O[C@H](CO)[C@@H](OC(=O)Nc2cccc(F)c2)[C@H](OC(=O)Nc2ccccc2-c2ccccc2)[C@H]1OC(=O)Nc1ccccc1-c1ccccc1", "NADPH oxidase 5 (Homo sapiens) (UniProt Q96PH1)", -1.21),
    ("CCOC(=O)C1=C[C@@H](c2ccccc2)N(S(=O)(=O)c2ccc(C)cc2)[C@H]1c1ccccc1", "NADPH oxidase 5 (Homo sapiens) (UniProt Q96PH1)", 0.565),
    ("COC(=O)C(CC#Cc1ccc2c(c1)[C@]1(C(=O)N2)[C@H](c2ccc(O)cc2)N2[C@H](c3ccccc3)[C@H](c3ccccc3)OC(=O)[C@H]2[C@@H]1C(=O)N1CCCCCCC1)C(=O)OC", "NADPH oxidase 5 (Homo sapiens) (UniProt Q96PH1)", 1.63),
    ("CN(C)CCCC[C@@H]1NC(=O)[C@@H]2C[C@H](C(=O)O)[C@H](c3cccc(OCCO)c3)N2C1=O", "NADPH oxidase 5 (Homo sapiens) (UniProt Q96PH1)", 1.18),
    ("COC(=O)[C@@]1(Cc2ccc(F)cc2)[C@H]2c3cc(C(=O)N4CCCC4)n(C)c3C[C@H]2CN1C(=O)c1ccccc1", "NADPH oxidase 5 (Homo sapiens) (UniProt Q96PH1)", -0.565),
    ("COc1cc(NN2C(C(O)C3CCCCC3)C=CC3C(=O)N(C)C(=O)C32)cc(OC)c1OC (stereo not drawn)", "NADPH oxidase 5 (Homo sapiens) (UniProt Q96PH1)", -1.7),
    ("CCN(CC)c1ccc(N2CC=CC34O[C@@H]5/C=C\\CCC(C)OC(=O)C5[C@H]3C(=O)N(C(C)CO)[C@@H]4C2=O)cc1 (stereo partly drawn)", "NADPH oxidase 5 (Homo sapiens) (UniProt Q96PH1)", 1.69),
    ("C=CCC(OC(C)=O)[C@@H]1[C@@H](N(Cc2cccc3ccccc23)C(=O)c2cccc3ccccc23)c2cc(OCCCO)ccc2N1C(=O)c1ccc2ccccc2c1 (stereo partly drawn)", "NADPH oxidase 5 (Homo sapiens) (UniProt Q96PH1)", -2.66),
    ("CC(C)[C@H]1NC(=O)[C@@]23C(=O)N[C@@H](Cc4ccccc4)C2[C@H](C)[C@@]2(C)O[C@H]2C3/C=C/CCC/C=C/CNC(=O)[C@H](Cc2ccccc2)NC1=O (stereo partly drawn)", "NADPH oxidase 5 (Homo sapiens) (UniProt Q96PH1)", 0.896),
    ("COCCOC(=O)N1C(=O)[C@@]2(c3ccccc31)[C@H](c1ccccc1OCCO)N1[C@H](c3ccccc3)[C@H](c3ccccc3)OC(=O)[C@H]1[C@@H]2C(=O)N1CCCCCCC1", "NADPH oxidase 5 (Homo sapiens) (UniProt Q96PH1)", 0.481),
    ("CCOC(=O)C1=CC[C@@H](c2ccccc2)N(S(=O)(=O)c2ccc(C)cc2)[C@H]1c1cccc(OC)c1", "NADPH oxidase 5 (Homo sapiens) (UniProt Q96PH1)", 0.732),
    ("CCOC(=O)C[C@H]1[C@H](OC(=O)c2ccccc2-c2ccccc2)[C@@H](NC(=O)c2ccc3ccccc3n2)c2cc(OCCCO)ccc2N1C(=O)c1ccccc1", "NADPH oxidase 5 (Homo sapiens) (UniProt Q96PH1)", 2.31),
    ("Cc1ccc(S[C@]2(C(=O)NCc3ccccc3)CC(=O)N(Cc3cc(C(F)(F)F)cc(C(F)(F)F)c3)[C@@H]2c2ccc(CO)cc2I)cc1", "NADPH oxidase 5 (Homo sapiens) (UniProt Q96PH1)", 1.28),
    ("COCCCNC(=O)[C@@H]1c2ccccc2C(=O)N(C2Cc3ccccc3C2)[C@H]1c1ccc(CO)cc1", "NADPH oxidase 5 (Homo sapiens) (UniProt Q96PH1)", -0.0459),
    ("COCCOC(=O)N1C(=O)[C@@]2(c3cc(C#CC4=CCCCC4)ccc31)[C@H](c1ccc(O)cc1)N1[C@H](c3ccccc3)[C@H](c3ccccc3)OC(=O)[C@H]1[C@@H]2C(=O)NC[C@H](O)c1ccccc1", "NADPH oxidase 5 (Homo sapiens) (UniProt Q96PH1)", 1.55),
    ("CC(C)CNC(=O)[C@@H]1c2ccccc2C(=O)N(C2CCCCC2)[C@H]1c1ccc(CO)cc1", "NADPH oxidase 5 (Homo sapiens) (UniProt Q96PH1)", 0.297),
    ("CN1C(=O)C2C(C1=O)C1C=C(CCCO)C2C(c2cccs2)N1Cc1cc2c(cc1Br)OCO2 (stereo not drawn)", "NADPH oxidase 5 (Homo sapiens) (UniProt Q96PH1)", 0.741),
    ("CO[C@H]1O[C@H](CO)[C@@H](OC(=O)c2ccc(Br)cc2)[C@@H]2OC(=O)[C@H](Cc3ccccc3)C/C=C/C[C@@H](Cc3ccccc3)C(=O)O[C@@H]12", "NADPH oxidase 5 (Homo sapiens) (UniProt Q96PH1)", -1.82),
    ("CCCCCCCCCCC(O)C1C=CC2C(=O)N(c3ccccc3)C(=O)C2N1Nc1ccccc1F (stereo not drawn)", "NADPH oxidase 5 (Homo sapiens) (UniProt Q96PH1)", -1.24),
    ("COCCOC(=O)N1C(=O)[C@@]2(c3cc(C#CCC(C(=O)OC)C(=O)OC)ccc31)[C@H](c1ccc(OCCO)cc1)N1[C@H](c3ccccc3)[C@H](c3ccccc3)OC(=O)[C@H]1[C@@H]2C(=O)Nc1nc2ccccc2s1", "NADPH oxidase 5 (Homo sapiens) (UniProt Q96PH1)", 0.93),
    ("C[C@]1(C(=O)NCC(F)(F)F)c2ccccc2C(=O)N(Cc2ccccc2)[C@H]1c1ccc(CO)cc1", "NADPH oxidase 5 (Homo sapiens) (UniProt Q96PH1)", 0.17),
]
